The following compounds are shown together with reported MIC values.
Test system: M. tuberculosis ATCC 35838 (H37Rv-R-R)
TEST_SUMMARY: microbe, parasite or virus in culture
Type: cell-based
RUN_PARAMETERS: Mycobacterium tuberculosis, 336 h
Answer format: numeric, µg/mL implied, no suffix.

CN[C@@H]1[C@H](O[C@H]2[C@H](O[C@H]3[C@H](O)[C@@H](O)[C@H](N=C(N)N)[C@@H](O)[C@@H]3N=C(N)N)O[C@@H](C)[C@]2(O)C=O)O[C@@H](CO)[C@H](O)[C@H]1O    0.78

Then this compound:
Result for CC[C@@H](CO)NCCN[C@@H](CC)CO , tested on M. tuberculosis ATCC 35838 (H37Rv-R-R), MIC: 1.56

###

Reported concentration at 1 h values for a set of compounds
TEST_SUMMARY: Plasma levels in an experimental mouse model of TB
RUN_PARAMETERS: in vivo, po
Write the answer as a number in ng/mL, unit excluded.

A selection of reference data follows.
CC[C@@H](CO)NCCN[C@@H](CC)CO    3510
C[C@]1(COc2ccc(N3CCC(Oc4ccc(OC(F)(F)F)cc4)CC3)cc2)Cn2cc([N+](=O)[O-])nc2O1    133
NNC(=O)c1ccncc1    1920

Lab note: measured concentration at 1 h of NC(=O)c1cnccn1 [PZA, pyrazinamide] was 60200

###

Measured Cmax by item
TEST_SUMMARY: Plasma levels in an experimental mouse model of TB
RUN_PARAMETERS: in vivo, po, 100 mg/kg
Number in ng/mL, nothing else.

CC[C@@H](CO)NCCN[C@@H](CC)CO    3510

Would you kindly look at the next entry?
Recorded result, NC(=O)c1cnccn1 [PZA, pyrazinamide] , Cmax: 63200

###

Parameter: concentration at 0.5 h. Scope: all listed entries.
TEST_SUMMARY: Plasma levels in an experimental mouse model of TB
RUN_PARAMETERS: in vivo, po
Lab book: enter the figure in ng/mL, no units written.

NNC(=O)c1ccncc1    2280
NC(=O)c1cnccn1 [PZA, pyrazinamide]    63200

Shifting focus to the compound that follows.
Form field concentration at 0.5 h, entry CC[C@@H](CO)NCCN[C@@H](CC)CO : 3170

###

Each entry below carries its reported AUC(0-t).
TEST_SUMMARY: Plasma levels in an experimental mouse model of TB
RUN_PARAMETERS: in vivo, po
Numbers only; they are read as µg·h/mL.

CC[C@@H](CO)NCCN[C@@H](CC)CO    12.2

Shifting focus to the compound that follows.
Record NC(=O)c1cnccn1 [PZA, pyrazinamide] . Reported AUC(0-t): 197

###

TEST_SUMMARY: Plasma levels in an experimental mouse model of TB
RUN_PARAMETERS: in vivo, po, 2.5 mg/kg
MEASURED_ENDPOINT: half-life
Remember to follow the number with its unit.

The compound C[C@]1(COc2ccc(N3CCC(Oc4ccc(OC(F)(F)F)cc4)CC3)cc2)Cn2cc([N+](=O)[O-])nc2O1 showed half-life equal to 7.6 h

###

The reader will find reported MIC values listed item by item below.
Tested on: M. tuberculosis ATCC 35837 (H37Rv-E-R)
TEST_SUMMARY: microbe, parasite or virus in culture
Format: cell-based
RUN_PARAMETERS: Mycobacterium tuberculosis, 336 h
Please state the figure in µg/mL; there is no need to write the unit.

CCC1Cn2cc([N+](=O)[O-])nc2O1 (stereo not shown)    0.2
O=[N+]([O-])c1cn2c(n1)OC[C@@H](OCc1ccc(OC(F)(F)F)cc1)C2    0.2
CC[C@@H](CO)NCCN[C@@H](CC)CO    50
CN[C@@H]1[C@H](O[C@H]2[C@H](O[C@H]3[C@H](O)[C@@H](O)[C@H](N=C(N)N)[C@@H](O)[C@@H]3N=C(N)N)O[C@@H](C)[C@]2(O)C=O)O[C@@H](CO)[C@H](O)[C@H]1O    0.78
CO[C@H]1/C=C/O[C@@]2(C)Oc3c(C)c(O)c4c(O)c(c(/C=N/N5CCN(C)CC5)c(O)c4c3C2=O)NC(=O)/C(C)=C\C=C\[C@H](C)[C@H](O)[C@@H](C)[C@@H](O)[C@@H](C)[C@H](OC(C)=O)[C@@H]1C    0.2

# compound C[C@]1(COc2ccc(N3CCC(Oc4ccc(OC(F)(F)F)cc4)CC3)cc2)Cn2cc([N+](=O)[O-])nc2O1 ; its MIC = 0.012

So for NNC(=O)c1ccncc1 , the logged MIC turned out to be 0.2

###

TEST_SUMMARY: Plasma levels in an experimental mouse model of TB
RUN_PARAMETERS: in vivo, po
Catalogue of compounds with associated concentration at 2 h
All answers are understood in ng/mL, so give the number only.

Please review the following examples before continuing.
CC[C@@H](CO)NCCN[C@@H](CC)CO [EB, ethambutol]    2510
NNC(=O)c1ccncc1 [INH, isoniazid]    740
C[C@]1(COc2ccc(N3CCC(Oc4ccc(OC(F)(F)F)cc4)CC3)cc2)Cn2cc([N+](=O)[O-])nc2O1 [OPC-67683]    193

Shift focus to the following entry.
Record NC(=O)c1cnccn1 [PZA, pyrazinamide] . Reported concentration at 2 h: 35500

###

Quick reference: MIC of the listed items.
Test system: M. tuberculosis ATCC 35838 (H37Rv-R-R)
TEST_SUMMARY: microbe, parasite or virus in culture
Format: cell-based
RUN_PARAMETERS: Mycobacterium tuberculosis, 336 h
Enter the number, and then the unit.

Some compounds with known MIC results, for comparison:
NNC(=O)c1ccncc1    0.1 µg/mL
C[C@]1(COc2ccc(N3CCC(Oc4ccc(OC(F)(F)F)cc4)CC3)cc2)Cn2cc([N+](=O)[O-])nc2O1    0.006 µg/mL
O=[N+]([O-])c1cn2c(n1)OC[C@@H](OCc1ccc(OC(F)(F)F)cc1)C2    0.1 µg/mL

Then this compound:
Documented MIC of CCC1Cn2cc([N+](=O)[O-])nc2O1 (stereo not shown) : 0.05 µg/mL

###

TEST_SUMMARY: Plasma levels in an experimental mouse model of TB
RUN_PARAMETERS: in vivo, po
Measured concentration at 0.25 h, listed per entry for reference.
Number in ng/mL, nothing else.

Consider the worked cases shown below.
NNC(=O)c1ccncc1    3060
CC[C@@H](CO)NCCN[C@@H](CC)CO    1300

Next, consider the following molecule.
What the record says about NC(=O)c1cnccn1 [PZA, pyrazinamide] : concentration at 0.25 h is 59100

###

TEST_SUMMARY: Plasma levels in an experimental mouse model of TB
RUN_PARAMETERS: in vivo, po
MEASURED_ENDPOINT: concentration at 6 h (ng/mL)
Your answer is read as ng/mL, so omit the unit and give the number.

What the record says about C[C@]1(COc2ccc(N3CCC(Oc4ccc(OC(F)(F)F)cc4)CC3)cc2)Cn2cc([N+](=O)[O-])nc2O1 : concentration at 6 h is 297

###

TEST_SUMMARY: Plasma levels in an experimental mouse model of TB
RUN_PARAMETERS: in vivo, po, 2.5 mg/kg
MEASURED_ENDPOINT: concentration at 24 h (ng/mL)
Report the figure in ng/mL without appending any unit label.

Record C[C@]1(COc2ccc(N3CCC(Oc4ccc(OC(F)(F)F)cc4)CC3)cc2)Cn2cc([N+](=O)[O-])nc2O1 . Reported concentration at 24 h: 49

###

TEST_SUMMARY: Plasma levels in an experimental mouse model of TB
RUN_PARAMETERS: in vivo, po, 10 mg/kg
MEASURED_ENDPOINT: Cmax (ng/mL)
Please state the figure in ng/mL; there is no need to write the unit.

Value of measured Cmax for the entry NNC(=O)c1ccncc1 [INH, isoniazid] : 3060

###

TEST_SUMMARY: Plasma levels in an experimental mouse model of TB
RUN_PARAMETERS: in vivo, po, 2.5 mg/kg
MEASURED_ENDPOINT: AUC(0-t) (ng·h/mL)
Field format: number, assumed ng·h/mL, no unit text.

Please fill in: AUC(0-t) reported for C[C@]1(COc2ccc(N3CCC(Oc4ccc(OC(F)(F)F)cc4)CC3)cc2)Cn2cc([N+](=O)[O-])nc2O1 = 4130

###

List of concentration at 4 h values.
TEST_SUMMARY: Plasma levels in an experimental mouse model of TB
RUN_PARAMETERS: in vivo, po
I'd appreciate it if you wrote the number followed by its unit.

concentration at 4 h reading for NNC(=O)c1ccncc1 : 253 ng/mL

According to the records, this compound NC(=O)c1cnccn1 [PZA, pyrazinamide] displays concentration at 4 h of 18400 ng/mL

// concentration at 4 h lookup, compound = C[C@]1(COc2ccc(N3CCC(Oc4ccc(OC(F)(F)F)cc4)CC3)cc2)Cn2cc([N+](=O)[O-])nc2O1 , result: 220 ng/mL

# compound CC[C@@H](CO)NCCN[C@@H](CC)CO ; its concentration at 4 h = 1020 ng/mL

Where these numbers come from: paper PMC1664607
